# testDescription: Half life in mouse liver microsomes at 1 uM by LC-MS/MS analysis
# Type: ADME
measurementLabel: half-life at 1 µM (min)

                                    compound  reading
 0  CC(NCCCNc1ccnc2cc(Cl)ccc12)C12CC3CC(CC(C3)C1)C2 (stereo unspecified)       11
 1  CC(CNc1ccnc2cc(Cl)ccc12)NCCC12CC3CC(CC(C3)C1)C2 (stereo unspecified)       60
 2  CC(CCNCC12CC3CC(CC(C3)C1)C2)Nc1ccnc2ccccc12 (stereo unspecified)       60
 3  CC(CNCC12CC3CC(CC(C3)C1)C2)Nc1ccnc2cc(Cl)ccc12 (stereo unspecified)       10
 4  CC(CCCNCC12CC3CC(CC(C3)C1)C2)Nc1ccnc2cc(Cl)ccc12 (stereo unspecified)       57
 5  CC(CCCNCCC12CC3CC(CC(C3)C1)C2)Nc1ccnc2cc(Cl)ccc12 (stereo unspecified)       60
 6  CC(CCNCCC12CC3CC(CC(C3)C1)C2)Nc1ccnc2cc(Cl)ccc12 (stereo unspecified)       60
 7  CC(CNc1ccnc2cc(Cl)ccc12)NCC12CC3CC(CC(C3)C1)C2 (stereo unspecified)       10
 8  CC(CNCCC12CC3CC(CC(C3)C1)C2)Nc1ccnc2cc(Cl)ccc12 (stereo unspecified)       60
 9  CC(CCNCC12CC3CC(CC(C3)C1)C2)Nc1ccnc2cc(Cl)ccc12 (stereo unspecified)       60
10  CC(CCNCC12CC3CC(CC(C3)C1)C2)Nc1c(F)cnc2cc(Cl)ccc12 (stereo unspecified)       21

###

# System: Mus musculus
# testDescription: Toxicity in Plasmodium berghei ANKA infected C57Bl6 mouse at 160 mg/kg/day, po administered for 3 days measured 2 times a day for 31 days
# Format: organism-based
# conditionContext: in vivo, 744 h
measurementLabel: Activity

In [3]: df
Out[3]:
                          structureassmiles  measurementlabel    reading
0            CCN(CC)CCCNc1nc2cc(Cl)ccc2cc1F          Activity  Non-toxic
1  Fc1ccc2c(CNCCCNc3ccnc4cc(Cl)ccc34)csc2c1          Activity  Non-toxic
2          CCN(CC)CCCNc1c(F)cnc2cc(Cl)ccc12          Activity  Non-toxic

###

# testDescription: Half life in human liver microsomes at 1 uM by LC-MS/MS analysis
# Type: ADME
Below, each of the molecules is paired with its reported half-life at 1 µM value.
measurementLabel: half-life at 1 µM (min)

                                   molecule  measurementunit  reading
0  CC(CCNCC12CC3CC(CC(C3)C1)C2)Nc1ccnc2ccccc12 (stereo not given)              min       60
1  CC(CNc1ccnc2cc(Cl)ccc12)NCC12CC3CC(CC(C3)C1)C2 (stereo not given)              min       13
2  CC(CCCNCCC12CC3CC(CC(C3)C1)C2)Nc1ccnc2cc(Cl)ccc12 (stereo not given)              min       60
3  CC(NCCCNc1ccnc2cc(Cl)ccc12)C12CC3CC(CC(C3)C1)C2 (stereo not given)              min       16
4  CC(CCCNCC12CC3CC(CC(C3)C1)C2)Nc1ccnc2cc(Cl)ccc12 (stereo not given)              min       49

meta.source: ChEMBL document CHEMBL3758104
